# ASSAYED TARGET: Protein cereblon/DNA damage-binding protein 1 (Homo sapiens)
# Sequence (Q96SW2 whole entry): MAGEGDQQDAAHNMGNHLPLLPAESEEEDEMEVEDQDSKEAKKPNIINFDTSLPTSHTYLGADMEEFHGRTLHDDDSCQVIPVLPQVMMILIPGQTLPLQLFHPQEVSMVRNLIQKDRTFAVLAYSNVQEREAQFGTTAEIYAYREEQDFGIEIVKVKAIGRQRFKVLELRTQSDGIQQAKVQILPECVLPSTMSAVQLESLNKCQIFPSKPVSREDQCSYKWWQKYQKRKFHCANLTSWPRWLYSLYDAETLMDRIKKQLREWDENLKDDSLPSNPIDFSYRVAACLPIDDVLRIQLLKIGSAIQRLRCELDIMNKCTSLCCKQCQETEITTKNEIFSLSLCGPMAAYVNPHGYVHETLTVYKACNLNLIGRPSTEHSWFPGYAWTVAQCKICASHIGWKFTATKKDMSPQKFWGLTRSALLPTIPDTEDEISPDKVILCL
# Sequence (Q16531 whole entry, further chain): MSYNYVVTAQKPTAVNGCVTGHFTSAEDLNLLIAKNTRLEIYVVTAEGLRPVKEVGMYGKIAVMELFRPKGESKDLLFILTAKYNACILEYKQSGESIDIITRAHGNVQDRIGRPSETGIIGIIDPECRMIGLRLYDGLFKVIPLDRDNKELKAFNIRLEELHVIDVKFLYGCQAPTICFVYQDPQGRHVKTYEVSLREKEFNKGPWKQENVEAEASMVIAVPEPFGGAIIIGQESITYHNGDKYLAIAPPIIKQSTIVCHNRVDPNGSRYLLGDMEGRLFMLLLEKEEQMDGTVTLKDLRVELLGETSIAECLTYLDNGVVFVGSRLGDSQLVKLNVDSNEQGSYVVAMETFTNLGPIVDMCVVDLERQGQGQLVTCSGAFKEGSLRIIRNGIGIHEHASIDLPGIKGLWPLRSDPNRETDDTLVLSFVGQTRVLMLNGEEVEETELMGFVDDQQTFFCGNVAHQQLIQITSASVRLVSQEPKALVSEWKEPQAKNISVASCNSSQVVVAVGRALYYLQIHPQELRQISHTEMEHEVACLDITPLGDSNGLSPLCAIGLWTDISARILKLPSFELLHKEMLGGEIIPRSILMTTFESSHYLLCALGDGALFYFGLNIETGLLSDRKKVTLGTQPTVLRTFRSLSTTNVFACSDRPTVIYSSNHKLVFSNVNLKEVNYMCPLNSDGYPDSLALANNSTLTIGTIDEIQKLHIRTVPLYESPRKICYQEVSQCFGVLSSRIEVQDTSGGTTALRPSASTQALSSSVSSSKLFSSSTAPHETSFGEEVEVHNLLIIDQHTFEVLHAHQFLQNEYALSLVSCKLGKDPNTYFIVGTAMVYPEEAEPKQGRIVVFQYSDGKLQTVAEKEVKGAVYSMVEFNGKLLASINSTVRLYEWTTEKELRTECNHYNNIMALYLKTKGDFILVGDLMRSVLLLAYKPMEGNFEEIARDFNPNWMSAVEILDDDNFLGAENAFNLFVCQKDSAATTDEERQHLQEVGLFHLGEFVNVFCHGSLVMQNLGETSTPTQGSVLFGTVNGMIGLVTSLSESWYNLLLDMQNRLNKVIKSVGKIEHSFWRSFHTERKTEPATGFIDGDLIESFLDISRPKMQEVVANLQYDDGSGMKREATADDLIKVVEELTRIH
# PROTOCOL NOTES: Fluorescence Polarization (FP) Assay for Screening Compound Ligand Binders of CRBN-DDM: Measuring compound ligand binding to CRBN-DDB1 was carried out using an established sensitive and quantitative in vitro fluorescence polarization (FP) based binding assay. (See, I. J. Enyedy et al, J. Med. Chem., 44: 3134324, 2001). Compounds were dispensed from serially diluted DMSO stock into black 384-well compatible fluorescence polarization plates using an Echo acoustic dispenser. Compound binding to CRBN-DDB1 was measured by displacement of either a (−)-Thalidomide-Alexa Fluor® or Pornalidomide-fluorescein conjugated probe dye. A 20 μL mixture containing 400 nM CRBN-DDB1 and 5 nM probe dye in 50 mM Hepes, pH 7.4, 200 mM NaCl, 1% DMSO and 0.05% pluronic acid-127 acid was added to wells containing compound and incubated at room temperature for 60 min. Matching control wells excluding CRBN-DDB1 were used to correct for background fluorescence. Plates were read on an Envision plate reader with appropriate FP filter sets. The corrected S (perpendicular) and P (parallel) values were used to calculate fluorescence polarization (FP) with the following equation: FP=1000*(S−G*P)/(S+G*P).The fractional amount of bound probe (FB) to CRBN-DDB1 as a function of compound concentration was fitted according to Wang; FEBS Letters 360, (1995), 111-114 to obtain fits for parameter offsets and binding constant (KA) of competitor compound.
# Format: protein assay
ENDPOINT: Kd

QUERY: I am curious: what Kd value has been reported for Cn1c(NC2CCC(=O)NC2=O)nc2ccccc21 (stereo unspecified) ?
RESULT: > 100 µM
